B1: KRT33B (parent)
chain: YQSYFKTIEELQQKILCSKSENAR

- Variants of: B1
- Assay Overview: protein stability index of a GFP-peptide fusion (GPS, HEK-293T) (PSI 1-6); higher = more stable;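 also: lentivirally expressed fusions sorted by FACS into six bins by GFP to DsRed ratio, PSI derived from sequencing read proportions per bin multiplied by bin number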
- Run Conditions: c terminus: a fixed tail appended
protein stability index below 2 gives 0.0; protein stability index at or above it gives 1.0.

>  <Mutation Annotation>
Y1R

>  <Class Name>
1.0

$$$$
>  <Mutation Annotation>
F5P

>  <Class Name>
1.0

$$$$
>  <Mutation Annotation>
L11I

>  <Class Name>
0.0

$$$$
>  <Mutation Annotation>
S18A

>  <Class Name>
1.0

$$$$
>  <Mutation Annotation>
K19P

>  <Class Name>
1.0

$$$$
>  <Mutation Annotation>
Q13H

>  <Class Name>
1.0

$$$$
>  <Mutation Annotation>
S3G

>  <Class Name>
0.0

$$$$
>  <Mutation Annotation>
L16M

>  <Class Name>
0.0

$$$$
>  <Mutation Annotation>
Q2A

>  <Class Name>
1.0

$$$$
>  <Mutation Annotation>
E21L

>  <Class Name>
0.0

$$$$
>  <Mutation Annotation>
Y1E

>  <Class Name>
1.0

$$$$
>  <Mutation Annotation>
T7Y

>  <Class Name>
1.0

$$$$
>  <Mutation Annotation>
Q13K

>  <Class Name>
0.0

$$$$

meta.source: the supplement of paper PMC10567573
